Tested on: SW620 human colorectal cancer cells
experimentSummary: MTT based cell viability assay: potentiation of the growth inhibiting activity of MMS
setupConditions: Homo sapiens, SW-620, 120 h, read-out: IC50 (nM), potentiation of the growth inhibiting activity of MMS, SW620 cells, 1.7 μg/ml MMS, 5 days (120 hours), MTT
Flag rule - IC50 less than 10 nM flags label 1; the remaining entries get label 0.

Criterion: IC50 strictly below 10 nM. Is it met by O=C(c1cccc(CCn2c(=O)[nH]c(=O)c3ccccc32)c1)N1CCN(c2ncccn2)CC1 ?
label 0

For this molecule, is IC50 lower than 10 nM? O=C(c1ccc(Br)cc1)N1CCN(C(=O)c2ccc(Cn3c(=O)[nH]c(=O)c4ccccc43)cc2)CC1
label 0

Dear reviewer, please state whether O=C(c1ccc(F)c(Cn2c(=O)[nH]c(=O)c3c(F)cccc32)c1)N1CCN(c2ncccn2)CC1 has IC50 strictly beneath 10 nM.
label 1

I wonder whether O=C(c1cccs1)N1CCN(C(=O)c2cc(Cn3c(=O)[nH]c(=O)c4c(F)cccc43)ccc2F)CC1 has IC50 below 10 nM. Can you tell?
label 1

I wonder whether O=C(c1cccc(Cn2c(=O)[nH]c(=O)c3c(F)cccc32)c1)N1CCN(c2ncccn2)CC1 has IC50 below 10 nM. Can you tell?
label 0

IC50 strictly < 10 nM for this molecule? O=C(c1cc(Cn2c(=O)[nH]c(=O)c3c(F)cccc32)ccc1F)N1CCN(C2CCCCC2)CC1
label 0

Please state whether IC50 is below 10 nM for O=C(c1cc(F)cc(Cn2c(=O)[nH]c(=O)c3c(F)cccc32)c1)N1CCN(c2ncccn2)CC1
label 0

Please let me know if O=C(c1cc(Cn2c(=O)[nH]c(=O)c3cc(Cl)ccc32)ccc1F)N1CCN(C(=O)C2CCCC2)CC1 shows IC50 below 10 nM.
label 1

Strictly below 10 nM: is that where IC50 of O=C(c1ccc(F)c(Cn2c(=O)[nH]c(=O)c3cc(F)ccc32)c1)N1CCN(C(=O)C2CCCCC2)CC1 sits?
label 0

A record lists O=C(c1cccc(Cn2c(=O)[nH]c(=O)c3c(F)cccc32)c1)N1CCN(C(=O)c2cccs2)CC1 . Is its IC50 below 10 nM?
label 0

For this molecule, is IC50 lower than 10 nM? O=C(c1cccc(Cn2c(=O)[nH]c(=O)c3ccccc32)n1)N1CCN(c2ccccn2)CC1
label 0

Strictly below 10 nM: is that where IC50 of O=C(c1cccc(Cn2c(=O)[nH]c(=O)c3ccccc32)c1)N1CCN(C(=O)C2CCCC2)CC1 sits?
label 0

Threshold test, IC50 < 10 nM: O=C(c1cc(Cn2c(=O)[nH]c(=O)c3ccccc32)ccc1F)N1CCN(C(=O)C2CCCC2)CC1
label 1

Would you kindly verify if IC50 of O=C(c1cccc(Cn2c(=O)[nH]c(=O)c3ccccc32)n1)N1CCN(C(=O)C2CCCC2)CC1 is strictly less than 10 nM?
label 0

Given O=C(c1ccc(F)c(Cn2c(=O)[nH]c(=O)c3ccccc32)c1)N1CCN(c2ncccn2)CC1 , is recorded IC50 strictly lower than 10 nM?
label 0

Determine if O=C(c1cc(F)cc(Cn2c(=O)[nH]c(=O)c3cc(F)ccc32)c1)N1CCN(c2ncccn2)CC1 shows IC50 strictly lower than 10 nM.
label 0

Lab note: confirm whether the reported IC50 for this molecule is below 10 nM, equality not counting. molecule: O=C(c1cccc(Cn2c(=O)[nH]c(=O)c3ccccc32)c1)N1CCN(c2ccncc2)CC1
label 0

Please state whether IC50 is below 10 nM for O=C(c1cc(Cn2c(=O)[nH]c(=O)c3ccccc32)ccc1F)N1CCN(C(=O)C2CC2)CC1
label 0

Confirm or reject: IC50 of O=C(c1cccc(Cn2c(=O)[nH]c(=O)c3ccccc32)c1)N1CCC(c2noc3cc(F)ccc23)CC1 lies strictly below 10 nM
label 0
